# credit: BigSolDB 2.1

Conditions: in water, 318.15 K
readout_name: solubility (mole fraction)

I = O=c1c(O)c(-c2ccc(O)cc2O)oc2cc(O)cc(O)c12
II = O=C1C[C@@H](c2ccc(O)cc2)Oc2cc(O)cc(O)c21
## Task Among I and II , whose measured solubility (mole fraction) is the smaller figure? Bench note: the answer is the label of the chosen record.
## Result I

====

Details: in water, 298.15 K
readout_name: solubility (mole fraction)

smiles_entry	readout_name	recorded_result
O=c1c(O)c(-c2ccc(O)c(O)c2)oc2cc(O)cc(O)c12	solubility (mole fraction)	5.29e-09
COc1ccc(-c2coc3cc(O)ccc3c2=O)cc1	solubility (mole fraction)	7.85e-10

I = O=c1c(O)c(-c2ccc(O)cc2O)oc2cc(O)cc(O)c12
II = O=C1C[C@@H](c2ccc(O)cc2)Oc2cc(O)cc(O)c21
## Task Among I and II , whose measured solubility (mole fraction) is the smaller figure? Bench note: the answer is the label of the chosen record.
## Result I
(I: 6.19e-09, II: 1.79e-07)

====

Details: in water, 318.15 K
readout_name: solubility (mole fraction)

A = COc1ccc(C2CC(=O)c3c(O)cc(O)cc3O2)cc1O (stereo not given)
B = O=C1c2c(O)cc(O)cc2OC(c2ccc(O)c(O)c2)C1O (stereo not given)
C = O=c1cc(-c2ccc(O)cc2)oc2cc(O)cc(O)c12
## Task Rank by decreasing solubility (mole fraction) the items listed here. When ranking, write the labels in the order the request describes.
## Result B, A, C
(B: 8.05e-05, A: 7.9e-07, C: 1.03e-07)
